B1: Calcium-binding protein 2, residues 155 to 219; numbered along this chain, Q9NPB3 (parent)
chain: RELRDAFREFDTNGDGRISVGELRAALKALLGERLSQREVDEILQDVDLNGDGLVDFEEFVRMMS

- Variants of: B1
- experimentNotes: abundance fitness (aPCA) (normalised: wild type 0, dead -1); higher = more abundant; growth selection in yeast, the domain comes from the species named
- measurementSetup: Homo sapiens
Would you mind sorting the entries by abundance fitness according to these classes? band 1: < -0.2; band 2: ≥ -0.2 and < -0.02; band 3: ≥ -0.02

Example results:
{"sequenceVariant": "D41E", "classAssignment": "band 2"}
{"sequenceVariant": "L3R", "classAssignment": "band 1"}
{"sequenceVariant": "D41N", "classAssignment": "band 1"}
{"sequenceVariant": "V40R", "classAssignment": "band 3"}
{"sequenceVariant": "D52A", "classAssignment": "band 3"}
{"sequenceVariant": "T12N", "classAssignment": "band 3"}
{"sequenceVariant": "V40F", "classAssignment": "band 2"}
{"sequenceVariant": "V55C", "classAssignment": "band 2"}
{"sequenceVariant": "E9Q", "classAssignment": "band 2"}
{"sequenceVariant": "R8G", "classAssignment": "band 1"}

**Query** # bin label for A25H
**Result** band 3

**Query** # bin label for L54Q
**Result** band 2
